target: ROS1 (Homo sapiens); experiment: HTRF KinEASE-TK kinase inhibitory assay, ROS1; assay type: biochemical
Sequence (P08922 28-2347): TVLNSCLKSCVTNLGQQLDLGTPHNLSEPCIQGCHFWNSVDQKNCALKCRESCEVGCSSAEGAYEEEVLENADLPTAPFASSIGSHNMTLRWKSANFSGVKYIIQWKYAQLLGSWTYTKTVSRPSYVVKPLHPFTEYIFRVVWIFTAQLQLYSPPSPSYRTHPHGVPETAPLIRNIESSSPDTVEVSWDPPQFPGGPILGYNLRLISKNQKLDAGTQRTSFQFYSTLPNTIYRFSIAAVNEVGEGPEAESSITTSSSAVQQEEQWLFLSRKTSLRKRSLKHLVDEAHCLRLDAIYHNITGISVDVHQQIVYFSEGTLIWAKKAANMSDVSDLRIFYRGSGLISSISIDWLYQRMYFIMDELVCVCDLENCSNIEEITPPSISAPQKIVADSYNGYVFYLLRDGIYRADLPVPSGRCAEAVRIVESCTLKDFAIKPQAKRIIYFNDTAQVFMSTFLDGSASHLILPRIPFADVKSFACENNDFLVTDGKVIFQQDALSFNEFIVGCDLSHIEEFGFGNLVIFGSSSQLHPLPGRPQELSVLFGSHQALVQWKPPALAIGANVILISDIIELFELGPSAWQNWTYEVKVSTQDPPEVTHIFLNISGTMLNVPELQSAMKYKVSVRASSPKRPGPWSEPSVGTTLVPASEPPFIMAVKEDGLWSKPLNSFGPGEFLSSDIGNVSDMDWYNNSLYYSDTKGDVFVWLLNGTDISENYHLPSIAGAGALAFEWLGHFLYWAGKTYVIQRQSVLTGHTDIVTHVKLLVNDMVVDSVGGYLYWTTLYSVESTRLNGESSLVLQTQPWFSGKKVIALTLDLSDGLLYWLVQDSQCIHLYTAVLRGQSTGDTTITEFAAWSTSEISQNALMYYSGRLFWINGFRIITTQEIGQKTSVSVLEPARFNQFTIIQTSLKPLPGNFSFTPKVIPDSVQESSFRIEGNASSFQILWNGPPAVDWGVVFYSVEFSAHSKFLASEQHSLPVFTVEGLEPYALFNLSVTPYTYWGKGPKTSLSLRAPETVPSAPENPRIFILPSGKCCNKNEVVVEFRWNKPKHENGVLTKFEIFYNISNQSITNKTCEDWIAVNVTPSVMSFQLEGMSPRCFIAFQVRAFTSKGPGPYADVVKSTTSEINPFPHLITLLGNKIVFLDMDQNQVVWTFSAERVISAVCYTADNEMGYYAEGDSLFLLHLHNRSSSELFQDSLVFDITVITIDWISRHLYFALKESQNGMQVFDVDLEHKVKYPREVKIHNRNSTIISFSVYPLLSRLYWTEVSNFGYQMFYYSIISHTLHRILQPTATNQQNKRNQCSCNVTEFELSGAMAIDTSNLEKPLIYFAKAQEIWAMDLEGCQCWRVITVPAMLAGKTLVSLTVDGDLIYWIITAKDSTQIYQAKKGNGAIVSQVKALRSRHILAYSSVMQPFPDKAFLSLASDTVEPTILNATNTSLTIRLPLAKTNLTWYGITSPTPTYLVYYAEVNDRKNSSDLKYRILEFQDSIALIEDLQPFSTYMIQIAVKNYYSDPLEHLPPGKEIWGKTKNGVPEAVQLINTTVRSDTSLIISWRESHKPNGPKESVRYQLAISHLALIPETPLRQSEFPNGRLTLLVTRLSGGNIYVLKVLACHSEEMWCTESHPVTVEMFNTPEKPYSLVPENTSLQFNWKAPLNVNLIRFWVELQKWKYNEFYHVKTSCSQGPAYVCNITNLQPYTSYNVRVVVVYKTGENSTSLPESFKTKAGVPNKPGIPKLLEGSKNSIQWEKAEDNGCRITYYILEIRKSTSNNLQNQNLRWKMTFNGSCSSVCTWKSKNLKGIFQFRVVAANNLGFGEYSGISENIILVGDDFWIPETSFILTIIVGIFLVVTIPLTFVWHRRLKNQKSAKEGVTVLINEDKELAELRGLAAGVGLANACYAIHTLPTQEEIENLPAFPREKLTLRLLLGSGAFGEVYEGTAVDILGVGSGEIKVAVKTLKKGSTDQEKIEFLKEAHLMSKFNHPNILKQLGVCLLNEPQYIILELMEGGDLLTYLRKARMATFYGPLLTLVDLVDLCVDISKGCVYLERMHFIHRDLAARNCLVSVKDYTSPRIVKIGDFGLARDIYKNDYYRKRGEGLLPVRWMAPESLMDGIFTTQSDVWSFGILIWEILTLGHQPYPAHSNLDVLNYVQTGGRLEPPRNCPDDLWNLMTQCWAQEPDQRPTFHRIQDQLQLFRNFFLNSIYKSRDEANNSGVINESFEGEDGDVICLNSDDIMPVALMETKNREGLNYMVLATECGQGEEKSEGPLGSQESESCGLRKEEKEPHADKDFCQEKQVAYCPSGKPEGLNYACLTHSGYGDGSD
outcome_measure: IC50 (nM)
Record the value in nM, omitting the unit from your answer.

Query :: Can you share its IC50? I mean this compound: "CCCn1cc(-c2cnc(N)c(O[C@H](C)c3ccccc3)c2)cn1"
Result :: 964

Query :: Name the recorded IC50 for "C[C@@H](Oc1cc(-c2cnn(C)c2)cnc1N)c1ccccc1-c1ccccc1" .
Result :: 37.4

Query :: # IC50 lookup, item "C[C@@H](Oc1cc(-c2cccn2C)cnc1N)c1ccccc1-c1ccnn1C"
Result :: 103

Query :: Give its IC50 value. Item: "CCCn1cc(-c2cnc(N)c(O[C@H](C)c3ccccc3-c3ccccc3)c2)cn1"
Result :: 148

Query :: Which IC50 reading was recorded for the compound "C[C@@H](Oc1cc(-c2cnn(C)c2)cnc1N)c1ccccc1" ?
Result :: 99.5

Query :: // IC50 lookup, key: "C[C@@H](Oc1cc(-c2ccnn2C)cnc1N)c1ccccc1-c1ccnn1C"
Result :: 216
